- TARGET OR SYSTEM: Nanoluciferase-BRD9 fusion protein (3×FLAG-NLuc-BRD9) in SYO-1 cells (Homo sapiens, UniProt Q9H8M2)
- Construct: expressed in transfected cells; host or cells: SYO-1
- Sequence (Q9H8M2 whole entry, the tested form may be a part): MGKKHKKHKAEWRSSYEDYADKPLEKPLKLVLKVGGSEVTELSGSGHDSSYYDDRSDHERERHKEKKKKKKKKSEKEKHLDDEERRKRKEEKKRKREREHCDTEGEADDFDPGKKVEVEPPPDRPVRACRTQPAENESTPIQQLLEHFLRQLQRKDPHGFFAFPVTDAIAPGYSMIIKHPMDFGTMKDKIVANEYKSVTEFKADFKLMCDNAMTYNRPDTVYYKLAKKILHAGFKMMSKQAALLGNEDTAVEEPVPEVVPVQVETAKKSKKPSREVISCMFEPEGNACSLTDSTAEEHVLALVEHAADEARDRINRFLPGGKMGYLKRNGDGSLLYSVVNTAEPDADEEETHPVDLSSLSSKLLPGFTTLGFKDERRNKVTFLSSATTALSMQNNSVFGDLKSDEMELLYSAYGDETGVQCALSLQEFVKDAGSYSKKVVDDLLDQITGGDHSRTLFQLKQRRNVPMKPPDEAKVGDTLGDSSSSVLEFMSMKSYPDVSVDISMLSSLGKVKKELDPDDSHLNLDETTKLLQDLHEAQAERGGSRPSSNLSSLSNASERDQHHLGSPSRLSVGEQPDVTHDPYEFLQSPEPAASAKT
- METHOD DESCRIPTION: SYO1 BRD9 NanoLuc degradation assay
- Type: cell-based
- RUN PARAMETERS: Table 6B; SYO-1 cells expressing 3×FLAG-NLuc-BRD9, 6 hours incubation, 1 μM top dose; read-out: SYO1 BRD9-NanoLuc degradation IC50
# DC50 annotations

[[record]]
molecule = "COc1cc(-c2cn(C)c(=O)c3cc(C(=O)NC4CCN(C5CCN(c6ccc7c(c6)CN(C6CCC(=O)NC6=O)C7=O)CC5)CC4(F)F)sc23)cc(OC)c1CN(C)C (centres unmarked)"
result = "< 0.01 µM"

[[record]]
molecule = "COc1cc(-c2cn(C)c(=O)c3cc(C(=O)NC4CCN(C(=O)CCN5CCN(c6ccc7c(c6)C(=O)N(C6CCC(=O)NC6=O)C7=O)CC5)CC4)sc23)cc(OC)c1CN(C)C (centres unmarked)"
result = "< 0.01 µM"

[[record]]
molecule = "COc1cc(-c2cn(C)c(=O)c3cc(C(=O)NCC4CC45CCN(CCCN4CCN(c6ccc7c(c6)C(=O)N(C6CCC(=O)NC6=O)C7=O)CC4)CC5)sc23)cc(OC)c1CN(C)C (centres unmarked)"
result = "> 0.01 µM"

[[record]]
molecule = "COc1cc(-c2cn(C)c(=O)c3cc(C(=O)NC4CCN(CCN5CCN(c6ccc7c(c6)CN(C6CCC(=O)NC6=O)C7=O)CC5)CC4(F)F)sc23)cc(Cl)c1CN(C)C (centres unmarked)"
result = "< 0.01 µM"


As a next step, examine the molecule that follows.
Lab book: DC50 of COc1cc(-c2cn(C)c(=O)c3cc(C(=O)NC4CCC45CCN(C(=O)CCN4CCN(c6ccc7c(c6)C(=O)N(C6CCC(=O)NC6=O)C7=O)CC4)CC5)sc23)cc(OC)c1CN(C)C (centres unmarked) noted as > 0.1 µM

====

- TARGET OR SYSTEM: Nanoluciferase-BRD9 fusion protein (3×FLAG-NLuc-BRD9) in SYO-1 cells (Homo sapiens, UniProt Q9H8M2)
- Construct: expressed in transfected cells; host or cells: SYO-1
- METHOD DESCRIPTION: SYO1 BRD9 NanoLuc degradation assay
- Assay type: cell-based
- RUN PARAMETERS: Table 6B; SYO-1 cells expressing 3×FLAG-NLuc-BRD9, 6 hours incubation, 1 μM top dose; read-out: SYO1 BRD9-NanoLuc degradation IC50
METRIC: DC50

[[record]]
molecule = "COc1cc(-c2cn(C)c(=O)c3cc(C(=O)NCC4CC5(C4)CN(C(=O)CCN4CCN(c6ccc7c(c6)C(=O)N(C6CCC(=O)NC6=O)C7=O)CC4)C5)sc23)cc(OC)c1CN(C)C (stereo not drawn) [Compound D51]"
result = "> 10 nM"


Lookup result for COc1cc(-c2cn(C)c(=O)c3cc(C(=O)NC4CCN(CCCCCOc5ccc6c(c5)C(=O)N(C5CCC(=O)NC5=O)C6=O)CC4(F)F)sc23)cc(OC)c1CN1CCC1 (stereo not drawn) [Compound D28] ; measured DC50: < 10 nM

Recorded DC50 (molecule COc1cc(-c2cn(C)c(=O)c3cc(C(=O)NC4CCN(C)CC4(F)F)sc23)cc(OC)c1CN1CCN(c2ccc3c(c2)CN(C2CCC(=O)NC2=O)C3=O)CC1 (stereo not drawn) [Compound D22] ): < 10 nM

====

- TARGET OR SYSTEM: Nanoluciferase-BRD9 fusion protein (3×FLAG-NLuc-BRD9) in SYO-1 cells (Homo sapiens)
- Construct: expressed in transfected cells; host or cells: SYO-1
- METHOD DESCRIPTION: SYO1 BRD9 NanoLuc degradation assay
- Assay type: cell-based
- RUN PARAMETERS: Table 6C; SYO-1 cells expressing 3×FLAG-NLuc-BRD9, 6 hours incubation, 1 μM top dose; read-out: SYO1 BRD9-NanoLuc degradation IC50
DC50 listing for selected compounds.

[[record]]
compound = "COc1cc(-c2cn(C)c(=O)c3cc(C(=O)N[C@@H]4CCN(CCN5CCN(c6ccc7c(c6)C(=O)N(C6CCC(=O)NC6=O)C7)CC5)CC4(F)F)sc23)cc(OC)c1CN(C)C (stereo partly drawn)"
metric = "DC50"
result = "< 10 nM"


The compound listed as COc1cc(-c2cn(C)c(=O)c3ccsc23)cc(OC)c1CN1CC(Oc2ccc3c(c2)C(=O)N(C2CCC(=O)NC2=O)C3=O)C1 (stereo not drawn) shows DC50 equal to < 10 nM

// sample CNc1cc2c(=O)n(C)cc(-c3cc(OC)c(CN4CCC5(CC4)CN(c4ccc6c(c4)C(=O)N(C4CCC(=O)NC4=O)C6)C5)c(OC)c3)c2s1 (stereo not drawn) , its DC50 was < 10 nM

====

IC50: recorded values
- TARGET OR SYSTEM: BRD9 bromodomain (Flag-BRD9 P133-K239; Swiss Prot Q9H8M2) (Homo sapiens, UniProt Q9H8M2)
- Construct: His-Flag-BRD9 (P133-K239); Swiss Prot Q9H8M2; His6 with TEV site (mgsshhhhhhenlyfq/) (N, cleaved yes)
- Sequence (Q9H8M2 133-239): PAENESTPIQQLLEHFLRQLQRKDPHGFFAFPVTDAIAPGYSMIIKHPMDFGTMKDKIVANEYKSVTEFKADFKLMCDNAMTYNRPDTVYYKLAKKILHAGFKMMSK
- METHOD DESCRIPTION: BRD9 bromodomain TR-FRET competition binding assay
- RUN PARAMETERS: 3 nM Flag-BRD9, 3.75 nM biotinylated ligand, 90 minutes at room temperature
- Protocol: Cleaved His tag was removed by purification. […] DMSO or 3-fold serially diluted compounds were then added to the Proxiplate followed by addition of Flag-BRD9. After a 10-minute incubation at room temperature, Eu-W1024 anti-FLAG (PerkinElmer, AD0273) was added.

Answered examples (5):
[[record]]
compound = "COc1cc(-c2cn(C)c(=O)c3cc(-c4nc5ccncc5[nH]4)sc23)cc(OC)c1CN(C)C"
target_or_system = "BRD9 bromodomain (Flag-BRD9 P133-K239; Swiss Prot Q9H8M2) (Homo sapiens, UniProt Q9H8M2)"
result = "< 10 nM"

[[record]]
compound = "COc1cc(-c2cn(C)c(=O)c3cc(C(=O)NC4CCN(C(=O)CCCCOc5cccc6c5C(=O)N(C5CCC(=O)NC5=O)C6=O)CC4)sc23)cc(OC)c1CN(C)C (stereo not drawn)"
target_or_system = "BRD9 bromodomain (Flag-BRD9 P133-K239; Swiss Prot Q9H8M2) (Homo sapiens, UniProt Q9H8M2)"
result = "< 10 nM"

[[record]]
compound = "COc1cc(-c2cn(C)c(=O)c3cc(NC(=O)C4CCN(C)CC4)sc23)cc(OC)c1CN(C)CC(=O)NCCOCCOc1cccc2c1C(=O)N(C1CCC(=O)NC1=O)C2=O (stereo not drawn) [Compound D1]"
target_or_system = "BRD9 bromodomain (Flag-BRD9 P133-K239; Swiss Prot Q9H8M2) (Homo sapiens, UniProt Q9H8M2)"
result = "> 100 nM"

[[record]]
compound = "COc1cc(-c2cn(C)c(=O)c3cc(C(=O)NC4CCN(CCCCCOc5ccc6c(c5)C(=O)N(C5CCC(=O)NC5=O)C6=O)CC4(F)F)sc23)cc(OC)c1CN(C)C (stereo not drawn)"
target_or_system = "BRD9 bromodomain (Flag-BRD9 P133-K239; Swiss Prot Q9H8M2) (Homo sapiens, UniProt Q9H8M2)"
result = "< 10 nM"

[[record]]
compound = "COc1cc(-c2cn(C)c(=O)c3cc(NC(=O)[C@H]4CCCN(C(=O)CCCCOc5cccc6c5C(=O)N(C5CCC(=O)NC5=O)C6=O)C4)sc23)cc(OC)c1CN(C)C (stereo partly drawn)"
target_or_system = "BRD9 bromodomain (Flag-BRD9 P133-K239; Swiss Prot Q9H8M2) (Homo sapiens, UniProt Q9H8M2)"
result = "> 100 nM"


Summary for this compound, COc1cc(-c2cn(C)c(=O)c3cc(C(=O)NC4CCC(=O)NC4)sc23)cc(OC)c1CN(C)C (stereo not drawn) : IC50 is < 10 nM

GET /value?item= COc1cc(-c2cn(C)c(=O)c3cc(NC(=O)C4CCN(CCCCCOc5cccc6c5C(=O)N(C5CCC(=O)NC5=O)C6=O)CC4)sc23)cc(OC)c1CN(C)C (stereo not drawn) &field=IC50 returns < 10 nM

Recorded result, COc1cc(-c2cn(C)c(=O)c3cc(C(=O)NC4CCN(C)CC4)sc23)cc(OC)c1CN(C)CC(=O)NCCOCCOc1cccc2c1C(=O)N(C1CCC(=O)NC1=O)C2=O (stereo not drawn) , IC50: > 10 nM

In plain terms, "COc1cc(-c2cn(C)c(=O)c3cc(C(=O)N4CCN(C)CC4)sc23)cc(OC)c1CN(C)C" has a documented IC50 of > 100 nM

Per the records, this compound ( "COc1ccc(-c2cn(C)c(=O)c3ccsc23)cc1OC" ) has IC50 equal to > 10 nM

The reported value for "COc1cc(-c2cn(C)c(=O)c3cc(NC(=O)C4CCN(C)CC4)sc23)cc(OC)c1CN(C)C" in terms of IC50 is > 10 nM

IC50 reported for this compound COc1cc(-c2cn(C)c(=O)c3cc(NC(=O)C4CCN(C(=O)CCOCCOCCNc5cccc6c5C(=O)N(C5CCC(=O)NC5=O)C6=O)CC4)sc23)cc(OC)c1CN(C)C (stereo not drawn) : > 10 nM
